target: IKZF2 (Helios) (Homo sapiens (Human), UniProt Q96SW2+Q9UKS7); test: IKZF2 reporter degradation assay (HEK 293T IKZF2-mNeonGreen reporter cell line); assay type: cell-based; conditions: HEK-293T, 24 h, Table 3; 1 μM, HEK 293T reporter cells, 24 hour incubation
Sequence (Q9UKS7 whole entry): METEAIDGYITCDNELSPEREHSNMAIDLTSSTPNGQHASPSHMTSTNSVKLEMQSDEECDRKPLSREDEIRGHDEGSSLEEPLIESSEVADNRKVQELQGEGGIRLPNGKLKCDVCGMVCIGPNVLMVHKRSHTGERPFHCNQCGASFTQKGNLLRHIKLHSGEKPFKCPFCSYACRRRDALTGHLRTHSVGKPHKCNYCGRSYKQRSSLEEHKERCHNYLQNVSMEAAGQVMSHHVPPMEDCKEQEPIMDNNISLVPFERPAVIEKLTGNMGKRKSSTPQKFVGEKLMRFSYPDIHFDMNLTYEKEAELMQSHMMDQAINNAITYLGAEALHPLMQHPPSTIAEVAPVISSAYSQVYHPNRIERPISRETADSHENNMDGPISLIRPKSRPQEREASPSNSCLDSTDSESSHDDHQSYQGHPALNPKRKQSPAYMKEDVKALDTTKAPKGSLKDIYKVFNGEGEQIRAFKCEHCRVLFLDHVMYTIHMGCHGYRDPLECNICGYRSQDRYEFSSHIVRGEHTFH
Sequence (Q96SW2 whole entry): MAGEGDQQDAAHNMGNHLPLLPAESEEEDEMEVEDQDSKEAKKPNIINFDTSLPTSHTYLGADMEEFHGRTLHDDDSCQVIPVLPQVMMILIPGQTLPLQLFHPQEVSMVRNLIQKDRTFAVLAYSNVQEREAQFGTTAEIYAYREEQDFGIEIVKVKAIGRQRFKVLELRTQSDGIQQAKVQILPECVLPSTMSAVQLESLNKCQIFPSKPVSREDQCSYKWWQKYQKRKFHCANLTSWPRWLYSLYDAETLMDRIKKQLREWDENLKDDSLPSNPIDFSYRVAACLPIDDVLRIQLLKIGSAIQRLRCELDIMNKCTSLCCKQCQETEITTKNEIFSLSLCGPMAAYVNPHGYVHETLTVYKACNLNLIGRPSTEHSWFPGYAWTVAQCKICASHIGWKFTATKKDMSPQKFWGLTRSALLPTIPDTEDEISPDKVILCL
Sequence (Q16531 whole entry partner): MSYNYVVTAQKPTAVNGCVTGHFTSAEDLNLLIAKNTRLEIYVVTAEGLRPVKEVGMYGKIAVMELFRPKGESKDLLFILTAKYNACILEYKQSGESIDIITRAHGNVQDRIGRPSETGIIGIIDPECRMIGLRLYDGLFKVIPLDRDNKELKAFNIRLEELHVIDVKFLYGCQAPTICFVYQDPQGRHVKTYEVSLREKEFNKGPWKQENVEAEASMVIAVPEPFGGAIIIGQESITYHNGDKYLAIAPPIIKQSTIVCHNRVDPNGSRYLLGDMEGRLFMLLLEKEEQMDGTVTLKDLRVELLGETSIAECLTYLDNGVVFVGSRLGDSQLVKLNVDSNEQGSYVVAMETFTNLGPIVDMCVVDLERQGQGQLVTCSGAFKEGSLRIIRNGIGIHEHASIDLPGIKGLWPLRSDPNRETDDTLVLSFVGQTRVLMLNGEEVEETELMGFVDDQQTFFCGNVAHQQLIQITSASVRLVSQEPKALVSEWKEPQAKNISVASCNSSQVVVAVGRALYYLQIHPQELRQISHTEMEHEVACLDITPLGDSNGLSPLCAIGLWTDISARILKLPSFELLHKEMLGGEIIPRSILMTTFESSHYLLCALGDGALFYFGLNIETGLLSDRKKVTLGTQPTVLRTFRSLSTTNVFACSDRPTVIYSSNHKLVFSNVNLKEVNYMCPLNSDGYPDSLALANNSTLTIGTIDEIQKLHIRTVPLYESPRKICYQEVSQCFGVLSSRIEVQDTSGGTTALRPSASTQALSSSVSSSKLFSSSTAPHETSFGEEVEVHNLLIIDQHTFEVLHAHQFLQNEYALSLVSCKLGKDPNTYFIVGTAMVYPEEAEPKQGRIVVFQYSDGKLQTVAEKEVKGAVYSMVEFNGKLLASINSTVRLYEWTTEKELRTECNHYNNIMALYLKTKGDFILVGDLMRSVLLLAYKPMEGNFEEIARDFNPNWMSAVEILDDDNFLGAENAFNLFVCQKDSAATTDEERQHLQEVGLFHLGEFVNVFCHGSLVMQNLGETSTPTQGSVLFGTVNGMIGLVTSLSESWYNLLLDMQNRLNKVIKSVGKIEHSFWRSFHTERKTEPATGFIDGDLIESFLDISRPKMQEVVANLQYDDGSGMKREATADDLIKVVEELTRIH
If the reported inhibition at 1 µM equals or exceeds 80%, assign Yes. If not, assign No.

Past entries and their recorded results:
O=C1CCC(N2Cc3c(ccc(O[C@H]4CCCC[C@@H]4N4CC(C5CCC5)C4)c3F)C2=O)C(=O)N1 (stereo partly shown) [Compound 25] | Yes
O=C1CCC(N2Cc3cc(O[C@H]4CCC[C@@H]4N4CC(C5CCC(F)(F)CC5)C4)ccc3C2=O)C(=O)N1 (stereo partly shown) [Compound 13] | No

Lookup: Threshold query (inhibition at 1 µM >= 80%) on N#CC1(C2CN([C@H]3CCCC[C@@H]3Oc3ccc4c(c3)CN(C3CCC(=O)NC3=O)C4=O)C2)CCC1 (stereo partly shown) [Compound 23]
Found: Yes

Lookup: Threshold query (inhibition at 1 µM >= 80%) on O=C1CCC(N2Cc3cc(O[C@H]4CCCC[C@@H]4N4CC(C5CCC5)C4)ccc3C2=O)C(=O)N1 (stereo partly shown) [Compound 5]
Found: Yes

Lookup: Threshold query (inhibition at 1 µM >= 80%) on O=C1CCC(N2Cc3cc(O[C@H]4CCCC[C@@H]4N4CC(C5CC5)C4)ccc3C2=O)C(=O)N1 (stereo partly shown) [Compound 3]
Found: No
